System: 786-0 renal
Assay: NCI tumour cell line growth inhibition, 48 h
Provide the recorded TGI for the entries that follow.

Use these answered entries as a reference point.
>>> endpoint_value("O=C1CSC(=S)N1c1ccc(F)cc1F")
"> 100 µM"
>>> endpoint_value("CN(C)C1(C(=O)O)CC1")
"> 100 µM"
>>> endpoint_value("O=c1oc2c3ccc4ccccc4c3n(CCN3CCOCC3)c2c2ccccc12")
"> 100 µM"
>>> endpoint_value("O=C(O)CNC(=O)c1ccccc1O")
"> 100 µM"
>>> endpoint_value("COC(=O)[C@@]12CC[C@]1(C(=O)OC)C1C(C)=CC(=O)O[C@@]12C (stereo partly specified)")
"> 100 µM"
>>> endpoint_value("CCN(CC)CCCC(C)NC(=O)c1cc(-c2nccn2C)nc2ccc(C)cc12 (stereo unspecified)")
"> 100 µM"

Can you give me TGI for all of these, one by one?
1. O=C(O)c1cc(N/C=C2\C(=O)c3ccccc3OC2O)ccc1O (stereo unspecified)
2. C[C@]12CCC3[C@@H](C[C@H]4OC(=O)[C@@]35CCC(=O)C=C45)C1CCC2=O (stereo partly specified)
3. COc1ccc(-c2nc(N)c(C#N)c3c2CCSc2ccc(C)cc2-3)cc1OC
4. COc1c(C(=O)/C(=N/Nc2ccccc2)C(C)=O)c(O)c(OC)c2occc12

["57.7 µg/mL", "> 100 µM", "> 61.1 µM", "> 100 µM"]

Annotate the molecule Cn1c(=O)nc2n(CCO)ccnc-2c1=O with its measured TGI.
> 100 µM
